Tested on: novel influenza virus (B/Field)
METHOD_SUMMARY: microbe, parasite or virus in culture
Type: cell-based
ASSAY_SETUP: unidentified influenza virus
Give measured EC50 for each item. Keep answers brief.
Respond numerically; units are µg/mL and should not be typed.

Input line: Quick one: EC50 for COc1cccc(N2CCN(C(=O)c3c(-c4ccccc4Cl)noc3N)CC2)c1 [Example 60] ?
Output line: 6.25

Input line: Similarly, Cc1onc(-c2cccc(F)c2)c1C(=O)N1CCN(c2ccccc2O)CC1 [Example 16] ?
Output line: 25

Input line: Similarly, Cc1onc(-c2cccc(F)c2)c1C(=O)N1CCN(c2ccc(Cl)c(Cl)c2)CC1 [Example 11] ?
Output line: 4.25

Input line: Similarly, CCOC(=O)C1=C[C@@H](OC(CC)CC)[C@H](NC(C)=O)[C@@H](N)C1 [Oseltamivir, reference compound] ?
Output line: 6.25

Input line: Similarly, Cc1onc(-c2ccccc2OC(F)(F)F)c1C(=O)N1CCN(c2ccc(Cl)c(Cl)c2)CC1 [Example 35] ?
Output line: 6.25

---

Give measured SI value K09 for each item. Keep answers brief.
Tested on: novel influenza virus (K09)
METHOD_SUMMARY: microbe, parasite or virus in culture
Assay type: cell-based
ASSAY_SETUP: K09; CC50/EC50

Input line: Quick one: SI value K09 for COc1cccc(N2CCN(C(=O)c3c(-c4cccc(F)c4)noc3C)CC2)c1 ?
Output line: 25 to 50

Input line: Similarly, Nc1onc(-c2cccc(C(F)(F)F)c2)c1C(=O)N1CCN(c2ccc(Cl)c(Cl)c2)CC1 ?
Output line: 31.34 to 62.68

Input line: Similarly, COc1cccc(N2CCN(C(=O)c3c(-c4ccccc4C(F)(F)F)noc3N)CC2)c1 ?
Output line: 0.32 to 1.59

Input line: Similarly, Nc1onc(-c2cccc(C(F)(F)F)c2)c1C(=O)N1CCN(c2ccccc2O)CC1 ?
Output line: 0.33 to 1.37

Input line: Similarly, COc1ccccc1N1CCN(C(=O)c2c(-c3ccccc3Cl)noc2N)CC1 ?
Output line: 159.94 to 319.89

Input line: Similarly, COc1ccccc1N1CCN(C(=O)c2c(-c3cccc(C(F)(F)F)c3)noc2N)CC1 ?
Output line: 42.07 to 125.4

Input line: Similarly, COc1cccc(N2CCN(C(=O)c3c(-c4ccc(OC(F)(F)F)cc4)noc3N)CC2)c1 ?
Output line: 0.49 to 12.57

Input line: Similarly, Nc1onc(-c2ccccc2C(F)(F)F)c1C(=O)N1CCN(c2ccc(Cl)c(Cl)c2)CC1 ?
Output line: 0.71 to 2.39

---

System: novel influenza virus (K09)
METHOD_SUMMARY: microbe, parasite or virus in culture
Assay type: cell-based
ASSAY_SETUP: K09; CC50/EC50
REPORTED_ENDPOINT: SI value K09

Input line: Quick one: SI value K09 for Nc1onc(-c2ccccc2F)c1C(=O)N1CCN(c2ccc(Cl)c(Cl)c2)CC1 ?
Output line: 12.5 to 25.0

Input line: Similarly, Cc1onc(-c2cccc(OC(F)(F)F)c2)c1C(=O)N1CCN(c2ccc(Cl)c(Cl)c2)CC1 ?
Output line: 3.91 to 10.80

Input line: Similarly, COc1cccc(N2CCN(C(=O)c3c(-c4cccc(F)c4)noc3N)CC2)c1 ?
Output line: 3.03 to 7.81

Input line: Similarly, Nc1onc(-c2cccc(F)c2)c1C(=O)N1CCN(c2ccccc2O)CC1 ?
Output line: 0.31 to 1.25

Input line: Similarly, Nc1onc(-c2ccccc2OC(F)(F)F)c1C(=O)N1CCN(c2ccc(Cl)c(Cl)c2)CC1 ?
Output line: 100.2 to 291.75

Input line: Similarly, COc1cccc(N2CCN(C(=O)c3c(-c4ccccc4C(F)(F)F)noc3C)CC2)c1 ?
Output line: 473.84 to 1903.03

Input line: Similarly, COc1ccccc1N1CCN(C(=O)c2c(-c3cccc(OC(F)(F)F)c3)noc2C)CC1 ?
Output line: 160<

Input line: Similarly, Nc1onc(-c2cccc(OC(F)(F)F)c2)c1C(=O)N1CCN(c2ccc(Cl)c(Cl)c2)CC1 ?
Output line: 0.34 to 1.70

---

System: cell (MDCK) infected with an influenza virus (K09)
METHOD_SUMMARY: Cytotoxicity assay using MTT
Assay type: cell-based
ASSAY_SETUP: compound 24 hours
Protocol: In this experiment, a cell was infected with a virus, and then the virus was directly treated with a compound so as to determine if the virus-infected cell has toxicity. […] After 1 hour, a formazan crystal produced by the MTT reagent was dissolved in DMSO, and the absorbance was measured by an ELISA reader so as to determine CC50. measured by MTT assay. […]
REPORTED_ENDPOINT: MTT assay (Experimental Example 3) CC50

Input line: Quick one: MTT assay (Experimental Example 3) CC50 for Nc1onc(-c2ccccc2OC(F)(F)F)c1C(=O)N1CCN(c2ccc(Cl)c(Cl)c2)CC1 ?
Output line: 150.3 to 189.64 µg/mL

Input line: Similarly, CCOC(=O)C1CCN(C(=O)c2c(-c3ccccc3OC(F)(F)F)noc2N)CC1 ?
Output line: 312.5 µg/mL

Input line: Similarly, COc1cccc(N2CCN(C(=O)c3c(-c4ccccc4OC(F)(F)F)noc3C)CC2)c1 ?
Output line: 500< μg/ml

Input line: Similarly, Nc1onc(-c2ccc(OC(F)(F)F)cc2)c1C(=O)N1CCN(c2ccc(Cl)c(Cl)c2)CC1 ?
Output line: 14.62 to 33.52 µg/mL

Input line: Similarly, Cc1onc(-c2cccc(F)c2)c1C(=O)N1CCN(c2ccccc2O)CC1 ?
Output line: 78.125 µg/mL

Input line: Similarly, COc1cccc(N2CCN(C(=O)c3c(-c4ccccc4C(F)(F)F)noc3N)CC2)c1 ?
Output line: 14.62 to 33.52 µg/mL

---

Give measured CC50 at 24 h for each item. Keep answers brief.
METHOD_SUMMARY: Cytotoxicity assay using MTT
Assay type: cell-based
ASSAY_SETUP: dog, MDCK cells infected with influenza virus (K09), MDCK cell infected with K09; compound 24 hours; read-out: MTT assay (Experimental Example 3) CC50

Input line: Quick one: CC50 at 24 h for Nc1onc(-c2cccc(OC(F)(F)F)c2)c1C(=O)N1CCN(c2ccc(Cl)c(Cl)c2)CC1 ?
Output line: 15.5 to 35.8 µg/mL

Input line: Similarly, Cc1onc(-c2cccc(OC(F)(F)F)c2)c1C(=O)N1CCN(c2ccc(Cl)c(Cl)c2)CC1 ?
Output line: 15.2 to 25.9 µg/mL

Input line: Similarly, Nc1onc(-c2cccc(C(F)(F)F)c2)c1C(=O)N1CCN(c2ccccc2O)CC1 ?
Output line: 16.5 to 34.3 µg/mL

Input line: Similarly, COc1ccccc1N1CCN(C(=O)c2c(-c3cccc(C(F)(F)F)c3)noc2N)CC1 ?
Output line: 147 to 191 µg/mL

Input line: Similarly, COc1ccccc1N1CCN(C(=O)c2c(-c3ccccc3Cl)noc2N)CC1 ?
Output line: 62.5 to 125 µg/mL

Input line: Similarly, COc1cccc(N2CCN(C(=O)c3c(-c4ccccc4Cl)noc3N)CC2)c1 ?
Output line: > 500 µg/mL

Input line: Similarly, Nc1onc(-c2ccccc2F)c1C(=O)N1CCN(c2ccc(Cl)c(Cl)c2)CC1 ?
Output line: 625 to 1250 µg/mL

Input line: Similarly, Cc1onc(-c2ccc(OC(F)(F)F)cc2)c1C(=O)N1CCN(c2ccc(Cl)c(Cl)c2)CC1 ?
Output line: 9.77 to 19.5 µg/mL

Input line: Similarly, Nc1onc(-c2ccccc2C(F)(F)F)c1C(=O)N1CCN(c2ccc(Cl)c(Cl)c2)CC1 ?
Output line: 18.4 to 29.9 µg/mL

---

Test system: H1N1 influenza virus (solomon)
METHOD_SUMMARY: microbe, parasite or virus in culture
Format: cell-based
ASSAY_SETUP: Influenza A virus; Solomon (H1N1); read-out: EC50
Give measured EC50 for each item. Keep answers brief.

Input line: Report EC50 for Cc1onc(-c2cccc(F)c2)c1C(=O)N1CCN(c2ccc(Cl)c(Cl)c2)CC1 tested on H1N1 influenza virus (solomon).
Output line: 0.087 to 0.199 µg/mL

Input line: Similarly, Cc1onc(-c2cccc(F)c2)c1C(=O)N1CCN(c2ccccc2O)CC1 ?
Output line: 0.097 to 0.195 µg/mL

Input line: Similarly, COc1cccc(N2CCN(C(=O)c3c(-c4cccc(F)c4)noc3C)CC2)c1 ?
Output line: 0.781 µg/mL

Input line: Similarly, COc1cccc(N2CCN(C(=O)c3c(-c4ccccc4C(F)(F)F)noc3C)CC2)c1 ?
Output line: 0.064 to 0.094 µg/mL

Input line: Similarly, CCOC(=O)C1=C[C@@H](OC(CC)CC)[C@H](NC(C)=O)[C@@H](N)C1 [Oseltamivir, reference compound] ?
Output line: 3.12 to 6.25 µg/mL

Input line: Similarly, COc1cccc(N2CCN(C(=O)c3c(-c4ccccc4Cl)noc3N)CC2)c1 ?
Output line: 0.053 to 0.094 µg/mL

Input line: Similarly, Cc1onc(-c2ccccc2OC(F)(F)F)c1C(=O)N1CCN(c2ccc(Cl)c(Cl)c2)CC1 ?
Output line: 0.097 to 0.195 µg/mL

Input line: Similarly, COc1cccc(N2CCN(C(=O)c3c(-c4ccccc4Cl)noc3C)CC2)c1 ?
Output line: 0.048 to 0.097 µg/mL
